- assay summary: qHTS for Inhibitors of human tyrosyl-DNA phosphodiesterase 1 (TDP1): qHTS in cells in presence of CPT; further: nearly all actives have a fitted effect of over 55% in size
- stated conditions: chicken DT40 Tdp1-/-;hTDP1 cells + 20 nM CPT, ATP luminescence, 48 h; series mostly up to 46.2 µM
Hit rate of the full screen: of about 420,000 compounds, about 50,000 (12%) were called active. Inconclusive results (about 26%) are left out. The call rests on the fitted dose curve; in most records, active means well fitted inhibition curve with a large enough effect; inconclusive means small, poorly fitted or top-dose-only effect; inactive means flat fitted curve, though single readings scatter. The entries come from a sample that favours actives as a whole.
Classes used: label 1 = active, label 0 = inactive

molecule=Cc1ccc(O)c(/C=N/NC(=O)COc2ccc3c(C)cc(=O)oc3c2)c1 category="label 1"
molecule="CC1CCCCC1NC(=O)COC(=O)Cc1ccc(Br)cc1 (stereo unspecified)" category="label 0"
molecule=CC(=O)c1c(C)[nH]c(C(=O)COc2ccc3c(C)cc(=O)oc3c2)c1C category="label 1"
molecule=Cc1cc(=O)oc2cc(OCC(=O)Nc3nnc(C4CC4)s3)ccc12 category="label 0"
molecule=Cc1cc(=O)oc2ccc(OCC(=O)O)cc12 category="label 0"
molecule=CN(C)c1ccc2c(=O)[nH][nH]c(=O)c2c1 category="label 0"

###

- assay summary: qHTS for Inhibitors of human tyrosyl-DNA phosphodiesterase 1 (TDP1): qHTS in cells in presence of CPT; further: nearly all actives have a fitted effect of over 55% in size
- stated conditions: chicken DT40 Tdp1-/-;hTDP1 cells + 20 nM CPT, ATP luminescence, 48 h; series mostly up to 46.2 µM
- Description: Human tyrosyl-DNA phosphodiesterase 1 (TDP1) is a novel repair gene, and we propose to use it as a new target for anticancer drug development. […] For the primary screen, Tdp1-/-;hTDP1 cells will be exposed to small molecules in the presence or absence of CPT, and their growth kinetics will be evaluated after 48 hours by measuring ATP activity. […] The hit compounds will then be evaluated in the presence or absence of CPT using Tdp1-/- cells. […]
The whole screen tested about 420,000 compounds, of which about 50,000 (12%) were called active. Inconclusive results (about 26%) are left out. The call rests on the fitted dose curve; in most records, active means well fitted inhibition curve with a large enough effect; inconclusive means small, poorly fitted or top-dose-only effect; inactive means flat fitted curve, though single readings scatter. The sample as a whole holds a higher share of actives than the screen did.
Classes used: True = active, False = inactive

molecule=Cc1ccccc1C(=O)O category=False
molecule=COc1ccc(NC(=O)CCNC(=O)Cn2cnc3sc4c(c3c2=O)CCCC4)cc1OC category=False
molecule=CCOC(=O)c1c(C)[nH]c(CCC(=O)NCCCN2CCN(c3cccc(Cl)c3)CC2)c1C category=True
molecule="C=CCOc1cccc(C2NC(=O)c3ccccc3O2)c1 (stereo not drawn)" category=False
molecule=CCc1ccc(S(=O)(=O)Nc2ccc(C)c(NS(C)(=O)=O)c2)cc1 category=False
molecule=O=C(COC(=O)c1ccccn1)NNC(=O)c1ccc([N+](=O)[O-])cc1 category=False
molecule=O=C(c1ccncc1)N1CCN(S(=O)(=O)c2cccc([N+](=O)[O-])c2)CC1 category=False
molecule=Nc1nc(NCc2ccccc2)n(-c2ccccc2)n1 category=False
molecule="Cn1c(=O)c2c(ncn2CC(COCc2ccccc2Cl)OCc2ccccc2Cl)n(C)c1=O (stereo not drawn)" category=True
molecule=Cc1ccc(C)c(N2CCN(Cc3nnc(-c4ccccc4)o3)CC2)c1 category=False
molecule="COCC1CCCN(Cc2nc(-c3ccc4c(c3)OCO4)no2)C1 (stereo not drawn)" category=False
molecule=NS(=O)(=O)c1ccc(NC(=S)NNC(=O)c2cccs2)cc1 category=False
molecule=CCOC(=O)N1CCC(Nc2c(NCCCN3CCN(c4ccc(OC)cc4)CC3)c(=O)c2=O)CC1 category=False
molecule=Cc1ccc(C(=O)OCC(=O)NC2CCCCCCC2)cc1C category=False
molecule=COc1ccccc1C(=O)NCCC(=O)NC1=NCCS1 category=False
molecule=Cn1c(-c2ccc(C(F)(F)F)cc2)cc2onc(-c3ccccc3)c2c1=O category=False
molecule="CCCCNC(=O)N1CCCC(N(C)CCc2ccc(OC)c(OC)c2)C1 (stereo not drawn)" category=False
molecule=COc1ccc(NC(=O)CN(C)C(=O)CNC(=O)C2CCCCC2)cc1 category=False
molecule=O=C(COc1ccc(Cl)cc1Cl)NCCCNC(=O)c1cnccn1 category=False
molecule=O=C1CCC(=O)N1CCC(=O)N(C(=O)NC1CCCCC1)C1CCCCC1 category=False
molecule=N#C[C@]1(S(=O)(=O)c2ccccc2)C[C@@H]2ON=C(c3cccc(Br)c3)[C@@H]2C1 category=True
molecule=Cc1ccccc1Nc1nc(N)nc(CSc2ccccc2)n1 category=False
molecule="CCN(CC)c1ccc(C2C(C(N)=O)=C(C)Nc3nc(SCc4ccccc4)nn32)cc1 (stereo not drawn)" category=False
molecule="N=c1n(Cc2ccc(Cl)cc2)c2ccccc2n1CC(O)c1ccco1 (stereo not drawn)" category=True
molecule="Cc1cccnc1C(NC(=O)C1CCN(Cc2ccc(Cl)c(Cl)c2)CC1)c1ccc(Cl)cc1 (stereo not drawn)" category=True
molecule=CCc1ccc(Oc2coc3cc(OC(=O)c4cc5ccccc5oc4=O)ccc3c2=O)cc1 category=False
molecule=Cc1ccccc1NC(=O)Cc1nc(COC(=O)c2cccnc2Cl)cs1 category=False
molecule=CCOC(=O)N1CCC(Nc2c(NCCN3CCN(c4cccc(Cl)c4)CC3)c(=O)c2=O)CC1 category=False
molecule=C/C(=N\NS(=O)(=O)c1ccc(Cl)cc1)c1ccc(NC(=O)c2ccco2)cc1 category=False
molecule=Cc1ccc(CN2COc3cc(C)c4c(oc(=O)c5ccccc54)c3C2)cc1 category=False
molecule=COc1ccccc1C(=O)Nc1ccnn1C1CCN(C(=O)C(C)(C)C)CC1 category=False
molecule=CCOC(=O)c1cc(S(=O)(=O)NCCc2ccc(OC)c(OC)c2)cn1C category=False
molecule="OC(COCc1ccco1)CN1CCN(c2ccccc2)CC1 (stereo not drawn)" category=False
molecule=COc1ccc(N2CCN(CCNC(=O)Nc3cc(Cl)ccc3Cl)CC2)cc1 category=False
molecule=CCOc1ccc(S(=O)(=O)NCCC(=O)NNC(=O)c2ccc(F)cc2)cc1 category=False
molecule="Cc1cc(C)c(S(=O)(=O)N(C)CC(=O)NCC2CCCO2)c(C)c1 (stereo not drawn)" category=False
molecule=COC(=O)CNS(=O)(=O)c1ccc(Cc2ccc(S(=O)(=O)NCC(=O)OC)cc2)cc1 category=False
molecule=CSc1ccc(S(=O)(=O)N2CCC(C(=O)NCc3ccncc3)CC2)cc1 category=False
molecule=O=C(NNS(=O)(=O)c1ccc(Cl)cc1)C1CCN(Cc2ccccc2)CC1 category=False
molecule=CC1=C(c2ccc(C)cc2)S(=O)(=O)NC1=NCCCN1CCN(c2cc(C)ccc2C)CC1 category=True
molecule=Cc1cccc(-n2ncc3c(=O)[nH]c(SCC(=O)Nc4cc(C)on4)nc32)c1 category=False
molecule=CCOC(=O)c1c(C)[nH]c(C(=O)NCCN2CCOCC2)c1C category=False
molecule=Cc1ccc(C)c(N2CCN(CCCNC(=O)Nc3ccc(Cl)cc3)CC2)c1 category=True

###

- assay summary: qHTS for Inhibitors of human tyrosyl-DNA phosphodiesterase 1 (TDP1): qHTS in cells in presence of CPT; further: nearly all actives have a fitted effect of over 55% in size
- stated conditions: chicken DT40 Tdp1-/-;hTDP1 cells + 20 nM CPT, ATP luminescence, 48 h; series mostly up to 46.2 µM
Hit rate of the full screen: of about 420,000 compounds, about 50,000 (12%) were called active. About 26% were inconclusive and are not listed. Calls follow the shape of the dose curve; as a rule, active = well fitted inhibition curve with a large enough effect; inconclusive = small, poorly fitted or top-dose-only effect; inactive = flat fitted curve, though single readings scatter. The list comes from a sample in which actives are over-represented; it also holds close analogues and randomly drawn compounds.
Classes used: active, inactive

compound=CC(C)(C)OC(=O)N1CCN(C(=O)c2[nH]c(C(F)(F)F)nc2-c2ccccc2)CC1 category=inactive
compound=Cc1c(NC(=O)c2c([N+](=O)[O-])cnn2C)c(=O)n(-c2ccccc2)n1C category=inactive
compound=CC(=O)[C@@]12O[C@@H]1C[C@H]1[C@@H]3CC[C@H]4C[C@@H](O)CC[C@]4(C)[C@H]3CC[C@@]12C category=inactive
compound=CCOc1cc2c(Cl)ncnc2c(OCC)c1OCC category=inactive
compound=CCOC(=O)c1cnc2c(C)cc(C)cc2c1Nc1ccc(N2CCOCC2)cc1 category=active
compound="O=C(COC(=O)C1CC2CCCC(C1)C2=O)NC(=O)c1ccccc1 (configuration not stated)" category=inactive
compound="CCOc1ccc(C2=CC(c3ccccc3)n3ncnc3N2)cc1 (configuration not stated)" category=inactive
compound=NNc1cccc(C=Cc2ccccc2)cc1=O category=active
compound="CC1=C(C(=O)OCc2ccc(C)cc2)C(c2c(Cl)cccc2Cl)CC(=O)N1 (configuration not stated)" category=inactive
compound="CC1=C(C(=O)OCc2ccc(C)cc2)C(c2ccccc2Cl)CC(=O)N1 (configuration not stated)" category=active
compound=CCNc1nc(Oc2ccc(C(=O)OC)cc2)nc(N2CCOCC2)n1 category=inactive
compound=Cc1cccc(NC(=S)NCc2ccc3[nH]c4c(c3c2)CCCC4)c1 category=active
compound=COc1cc(OC)cc(C(=O)NCCCn2ccnc2)c1 category=inactive
compound=O=c1oc(/C=C/c2ccccc2)nc2ccccc12 category=inactive
compound=CCc1ccc(NC(=O)CN2C(=O)COc3ccc(S(=O)(=O)N4CCCC4)cc32)cc1 category=inactive
compound=C=CCC1(C(=O)N(C)Cc2ccccc2)CCN(C(=O)OC(C)(C)C)CC1 category=active
compound=COc1ccc(C)cc1S(=O)(=O)Nc1cccc(Cl)c1Cl category=inactive
compound=Cc1cc(C)cc(NC(=O)CSc2nc(=O)n(CCN3CCOCC3)c3c2CCC3)c1 category=inactive
compound=CCCCNC(=O)CCn1nc(-c2ccc(Cl)cc2)ccc1=O category=inactive
compound="Cc1c(NC(=O)C(C)Oc2cccc(Cl)c2)c(=O)n(-c2ccccc2)n1C (configuration not stated)" category=inactive
compound="CN(CCC1CCOCC1)C(=O)CC1C(=O)NCCN1Cc1cccc(F)c1 (configuration not stated)" category=inactive
compound=CC(C)Cn1c(SCC(=O)Nc2ccc(Cl)cc2F)nc(O)cc1=O category=inactive
